- Target Or Test System: 9°N polD^− (exonuclease-deficient polD mutant H554A)
- Construct: gene polC; recombinant purified heterodimer of large and small subunit, ~1:1; with DNA polymerase II small subunit
- Assay Summary: pre-steady-state single-turnover nucleotide incorporation, rapid chemical quench, capillary electrophoresis
- Type: biochemical, Thermococcus sp. 9°N
- Assay Context: apparent Kd; correct pairing, template C with 5'-FAM 50-mer primer; 2 mM MgSO4, ThermoPol buffer pH 8.8 (at 25 °C), 60 °C
Assay Readout: pKd
pKd is a log-scale quantity: -log10 of the concentration expressed in molar.

Q. Would you kindly share the measured pKd for `Nc1nc2c(ncn2[C@H]2C[C@H](O)[C@@H](COP(=O)(O)OP(=O)(O)OP(=O)(O)O)O2)c(=O)[nH]1` ?
A. 6.05

###

- Target Or Test System: 9°N polD^− (exonuclease-deficient polD mutant H554A)
- Construct: gene polC; recombinant purified heterodimer of large and small subunit, ~1:1; with DNA polymerase II small subunit
- Assay Summary: pre-steady-state single-turnover nucleotide incorporation, rapid chemical quench, capillary electrophoresis
- Format: biochemical, Thermococcus sp. 9°N
- Assay Context: apparent Kd; correct pairing, A Template-1 with 5'-FAM 50-mer primer; 2 mM MgSO4, ThermoPol buffer pH 8.8 (at 25 °C), 60 °C
Assay Readout: Kd (nM)
Report only the number, with the unit nM understood.

Q. Would you kindly share the measured Kd for Cc1cn([C@H]2C[C@H](O)[C@@H](COP(=O)(O)OP(=O)(O)OP(=O)(O)O)O2)c(=O)[nH]c1=O [dTTP] ?
A. 1600
